Let's look at some compounds and their measured selective drug sensitivity score.
Test system: ALL-PO
Assay: selective drug sensitivity score (sDSS, relative to normal bone marrow) (sDSS (score)); higher = more potent and effective on the cell line relative to normal bone marrow cells;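 further: ALL cell lines in 384-well plates, five doses spanning 10,000-fold, each plate scaled between vehicle and 100 µmol/L benzalkonium chloride controls, sDSS an adapted area-under-curve metric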
Conditions: 72 h

# COMPOUND, selective drug sensitivity score
records = [
    ("Cc1cc(C(C)Nc2ccccc2)c2nc(N3CCOCC3)cc(=O)n2c1 (centres undefined) [TGX-221] (top concentration 10000 nM)", 1.16),
    ("CC#CC(=O)N1CCC[C@H]1c1nc(-c2ccc(C(=O)Nc3ccccn3)cc2)c2c(N)nccn12 [Acalabrutinib] (top concentration 1000 nM)", -0.1),
    ("COc1ccccc1S(=O)(=O)Nc1ccc2c(c1)CN(C)C(=O)N2 [PFI-1] (top concentration 30000 nM)", 2.7),
    ("COc1cc(N2CCC(N3CCN(C)CC3)CC2)ccc1Nc1ncc(Cl)c(Nc2ccccc2P(C)(C)=O)n1 [Brigatinib] (top concentration 1000 nM)", 4.16),
]

----------
Tested on: 380
Experiment: selective drug sensitivity score (sDSS, relative to normal bone marrow) (sDSS (score)); higher = more potent and effective on the cell line relative to normal bone marrow cells
Details: 72 h

# COMPOUND, selective drug sensitivity score
records = [
    ("N#Cc1ccnc(N2C(=O)CC[C@H]2C(=O)N(c2cncc(F)c2)[C@H](C(=O)NC2CC(F)(F)C2)c2ccccc2Cl)c1 [Ivosidenib] (top concentration 10000 nM)", 3),
    ("CCOC(=O)C1=CCCC[C@H]1S(=O)(=O)Nc1ccc(F)cc1Cl [Resatorvid] (top concentration 10000 nM)", 0),
    ("Cc1sc2c(c1C)C(c1ccc(Cl)cc1)=N[C@@H](CC(=O)Nc1ccc(O)cc1)c1nnc(C)n1-2 [Birabresib] (top concentration 10000 nM)", -9.68),
    ("CC(C)(C)c1cnc(CSc2cnc(NC(=O)C3CCNCC3)s2)o1 [SNS-032] (top concentration 10000 nM)", -6.64),
    ("Oc1ncnc2[nH]ncc12 [Allopurinol] (top concentration 10000 nM)", -0.64),
    ("COC(=O)c1ccc([C@H]2c3[nH]c4ccccc4c3C[C@H](C(=O)OC)N2C(=O)CCl)cc1 [RSL3] (top concentration 10000 nM)", 14.2),
    ("Cc1cn(-c2cc(NC(=O)c3ccc(C)c(Nc4nccc(-c5cnccn5)n4)c3)cc(C(F)(F)F)c2)cn1 [Radotinib] (top concentration 10000 nM)", 1.8),
    ("O=C(Nc1cc(Oc2cc(F)c(NC(=O)C3(C(=O)Nc4ccc(F)cc4)CC3)cc2F)ccn1)C1CC1 [Altiratinib] (top concentration 10000 nM)", -0.86),
    ("NC(=O)c1cccc(-c2cccc(OC(=O)NC3CCCCC3)c2)c1 [URB597] (top concentration 1000 nM)", 2.44),
    ("CO[C@H]1C[C@@H]2CC[C@@H](C)[C@@](O)(O2)C(=O)C(=O)N2CCCC[C@H]2C(=O)O[C@H]([C@H](C)C[C@@H]2CC[C@@H](OP(C)(C)=O)[C@H](OC)C2)CC(=O)[C@H](C)/C=C(\\C)[C@@H](O)[C@@H](OC)C(=O)[C@H](C)C[C@H](C)/C=C/C=C/C=C/1C [Ridaforolimus] (top concentration 100 nM)", 24.5),
    ("CCN(CC)C(=S)SSC(=S)N(CC)CC [Disulfiram(+CuCl2)] (top concentration 50000 nM)", 1.58),
    ("CNC(=O)c1nn(C)c2c1C(C)(C)Cc1cnc(Nc3ccc(N4CCN(C)CC4)cc3)nc1-2 [Milciclib] (top concentration 10000 nM)", -0.06),
]

meta.source: the supplement of paper PMC8967900
